Just for reference, ChEMBL document CHEMBL1152611 is where these values come from.

Target or system: 5-hydroxytryptamine receptor 6 (Homo sapiens)
Assay summary: Displacement of [3H]LSD from human 5HT6 receptor expressed in HEK293 cells
Format: cell-based
Outcome measure: pKi
pKi field: float, defined as -log10 of concentration (mol/L).

For COc1cc2c(cc1NS(=O)(=O)c1c(Cl)nc3sccn13)C(C)=C(C)C2 , write its pKi. 7.19

Read off the recorded pKi for CC1=C(C2CCCN(C)C2)c2cc(NS(=O)(=O)c3c(Cl)nc4sccn34)ccc2C1 (stereo not drawn) 7.74

Now let's try a different one.
For CC1=CC(C)(C)c2ccc(NS(=O)(=O)c3c(Cl)nc4sccn34)cc21 , write its pKi. 7.10

====

Target or system: Sodium-dependent serotonin transporter (Homo sapiens)
Sequence (P31645 whole entry): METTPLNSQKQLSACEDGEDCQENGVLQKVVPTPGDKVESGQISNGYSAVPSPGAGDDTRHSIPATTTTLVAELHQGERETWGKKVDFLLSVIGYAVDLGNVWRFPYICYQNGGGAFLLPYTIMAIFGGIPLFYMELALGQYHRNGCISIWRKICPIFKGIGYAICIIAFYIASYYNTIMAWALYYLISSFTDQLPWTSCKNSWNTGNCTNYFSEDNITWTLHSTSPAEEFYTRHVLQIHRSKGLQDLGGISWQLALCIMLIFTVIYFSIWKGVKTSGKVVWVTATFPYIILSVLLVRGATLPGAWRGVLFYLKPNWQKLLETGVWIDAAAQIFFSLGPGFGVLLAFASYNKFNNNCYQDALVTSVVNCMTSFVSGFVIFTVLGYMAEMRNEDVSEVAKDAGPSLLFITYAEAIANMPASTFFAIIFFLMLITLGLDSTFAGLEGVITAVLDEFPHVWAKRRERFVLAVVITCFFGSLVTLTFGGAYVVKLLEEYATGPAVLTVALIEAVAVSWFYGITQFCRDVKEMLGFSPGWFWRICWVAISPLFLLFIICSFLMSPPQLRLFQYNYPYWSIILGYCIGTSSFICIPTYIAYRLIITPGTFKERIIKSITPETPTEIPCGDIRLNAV
Outcome measure: IC50

State the measured IC50 (Sodium-dependent serotonin transporter (Homo sapiens)) of COc1cc2c(cc1NS(=O)(=O)c1c(Cl)nc3sccn13)C(C)=C(C)C2 > 10 µM

====

Target or system: 5-hydroxytryptamine receptor 6 (Homo sapiens)
Assay summary: Displacement of [3H]LSD from human 5HT6 receptor expressed in HEK293 cells at 100 nM
Format: cell-based
Recorded inhibition for the following compounds
Express the result in % but write the number alone.

Some compounds with known inhibition results, for comparison:
Given CC1=CC(C)(C)c2ccc(NS(=O)(=O)c3c(Cl)nc4sccn34)cc21 , respond with its inhibition. 75

Item COc1cc2c(cc1NS(=O)(=O)c1c(Cl)nc3sccn13)C(C)=C(C)C2 : provide inhibition 84

For the compound CC1=C(C2CCCN(C)C2)c2cc(NS(=O)(=O)c3sc4ccc(Cl)cc4c3C)ccc2C1 (stereo not given) , give its measured inhibition value. 22

Consider the compound CC1=C(C2CCCN(C)C2)c2cc(NS(=O)(=O)c3c(Cl)nc4sccn34)ccc2C1 (stereo not given) and give its recorded inhibition. 86

In the following, a different compound is considered.
# return recorded inhibition for entry Cc1c(S(=O)(=O)Nc2ccc3c(c2)C([C@H]2CCN(C)C2)=CC3)sc2ccc(Cl)cc12 57

====

Target or system: UniProtKB P50406
Assay summary: Agonist activity at 5HT6 receptor
Outcome measure: EC50 (nM)
Give your result in nM as a bare value.

Note EC50 for the compound shown: O=S(=O)(Nc1ccc2[nH]cc(C[C@H]3CCCN3)c2c1)c1ccc(C(F)(F)F)cc1 4.5

====

Target or system: 5-hydroxytryptamine receptor 6 (Homo sapiens, UniProt P50406)
Sequence (P50406 whole entry): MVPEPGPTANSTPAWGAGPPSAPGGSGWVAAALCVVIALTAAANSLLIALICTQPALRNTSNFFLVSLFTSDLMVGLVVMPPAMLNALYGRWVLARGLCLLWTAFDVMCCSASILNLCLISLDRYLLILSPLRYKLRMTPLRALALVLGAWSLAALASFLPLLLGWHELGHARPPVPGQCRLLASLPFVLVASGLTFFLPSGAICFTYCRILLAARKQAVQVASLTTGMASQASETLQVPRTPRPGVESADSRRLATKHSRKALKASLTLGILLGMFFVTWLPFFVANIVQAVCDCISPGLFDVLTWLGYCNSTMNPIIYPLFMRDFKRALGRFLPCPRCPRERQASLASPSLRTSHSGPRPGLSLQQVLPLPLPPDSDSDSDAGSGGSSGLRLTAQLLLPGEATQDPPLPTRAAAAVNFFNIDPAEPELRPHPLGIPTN
Assay summary: Binding affinity to 5HT6 receptor
Listed compounds paired with reported pKi
For clarity, pKi is expressed as the negative log10 of concentration in mol/L.

Specify pKi for CN(C)Cc1cn(S(=O)(=O)c2ccccc2)c2ccccc12 and stop. 8.52

Others:
Tell me pKi reported for O=S(=O)(Nc1ccc2[nH]cc(C[C@@H]3CCCN3)c2c1)c1ccc(C(F)(F)F)cc1 8.00

Hello, please tell me recorded pKi for this one: O=S(=O)(Nc1ccc2[nH]cc(C[C@H]3CCCN3)c2c1)c1ccc(C(F)(F)F)cc1 9.40

====

Target or system: 5-hydroxytryptamine receptor 6 (Homo sapiens)
Assay summary: Antagonist activity at 5HT6 receptor
Type: functional
Outcome measure: IC50 (nM)
Give a bare numeral; the unit nM is implied.

Consider the compound CN(C)Cc1cn(S(=O)(=O)c2ccccc2)c2ccccc12 and give its recorded IC50. 880

Give the reported value of IC50 for this record: O=S(=O)(Nc1ccc2[nH]cc(C[C@@H]3CCCN3)c2c1)c1ccc(C(F)(F)F)cc1 21.6

More entries:
Query IC50 for Cc1cn(S(=O)(=O)c2ccc(N)cc2)c2ccccc12 320
